The origin of these recorded values is paper PMC9482650.

Molecular target: T1, SNTB1, Q13884
T1 sequence (Q13884 107-205, limits assumed, looked up): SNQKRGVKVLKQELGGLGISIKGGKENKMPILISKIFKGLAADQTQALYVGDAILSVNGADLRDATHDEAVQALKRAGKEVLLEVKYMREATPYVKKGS
Assay: holdup assay
Design: key: below the threshold = too weak to quantify, mostly under pKd 3.1 to 4
Details: plain residues with an end cap or a label only (N-terminal biotin on a linker: ado-ado)

| binder | pKd |
| --- | --- |
| MLPANYVEAI [NEB, P20929] | below the threshold |
| QKASRNESTF [POLR1D, P0DPB6] | below the threshold |
| VISSDDLTEL [CAPN6, Q9Y6Q1] | below the threshold |
